- Assay system: Beta-2 adrenergic receptor (Homo sapiens, UniProt P07550); note: assay procedure not described here
- Sequence (P07550 whole entry): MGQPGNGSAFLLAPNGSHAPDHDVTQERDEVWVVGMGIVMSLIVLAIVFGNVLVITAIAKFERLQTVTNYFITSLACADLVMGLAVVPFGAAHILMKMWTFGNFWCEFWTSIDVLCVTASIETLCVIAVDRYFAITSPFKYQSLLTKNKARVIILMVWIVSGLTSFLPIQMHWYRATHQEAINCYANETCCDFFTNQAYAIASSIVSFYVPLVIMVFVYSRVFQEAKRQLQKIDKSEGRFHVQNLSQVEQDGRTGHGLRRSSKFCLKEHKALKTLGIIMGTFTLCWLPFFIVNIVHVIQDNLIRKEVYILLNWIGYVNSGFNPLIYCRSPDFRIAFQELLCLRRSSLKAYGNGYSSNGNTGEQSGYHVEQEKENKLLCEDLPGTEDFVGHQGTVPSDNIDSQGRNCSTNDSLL

Molecule	Assay system	AC50
COc1ccc(C2C(=O)c3ccccc3C2=O)cc1 [ANISINDIONE]	Beta-2 adrenergic receptor (Homo sapiens, UniProt P07550)	> 10 µM
CCCC(C)(COC(N)=O)COC(N)=O [MEPROBAMATE]	Beta-2 adrenergic receptor (Homo sapiens, UniProt P07550)	> 10 µM
CC(C(=O)O)c1ccc2oc(-c3ccc(Cl)cc3)nc2c1 (stereo not given) [BENOXAPROFEN]	Beta-2 adrenergic receptor (Homo sapiens, UniProt P07550)	> 30 µM
CCc1nc(N)nc(N)c1-c1ccc(Cl)cc1 [PYRIMETHAMINE]	Beta-2 adrenergic receptor (Homo sapiens, UniProt P07550)	> 10 µM
CC/C=C\C/C=C\C/C=C\C/C=C\C/C=C\CCCC(=O)OCC [ICOSAPENT ETHYL]	Beta-2 adrenergic receptor (Homo sapiens, UniProt P07550)	> 30 µM

Cited source: ChEMBL document CHEMBL5291721
